Target: Plasminogen activator inhibitor 1 (Homo sapiens, UniProt P05121)
Sequence (P05121 whole entry): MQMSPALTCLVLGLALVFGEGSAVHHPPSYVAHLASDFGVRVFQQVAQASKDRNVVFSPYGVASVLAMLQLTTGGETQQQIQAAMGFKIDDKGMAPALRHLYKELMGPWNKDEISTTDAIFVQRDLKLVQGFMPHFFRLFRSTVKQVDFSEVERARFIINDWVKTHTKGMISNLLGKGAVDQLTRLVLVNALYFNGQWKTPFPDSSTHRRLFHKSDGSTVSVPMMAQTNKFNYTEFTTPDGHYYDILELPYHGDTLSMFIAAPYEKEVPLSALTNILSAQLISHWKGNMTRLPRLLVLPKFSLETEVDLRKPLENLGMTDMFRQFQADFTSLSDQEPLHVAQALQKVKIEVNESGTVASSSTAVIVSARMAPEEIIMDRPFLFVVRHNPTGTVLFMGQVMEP
Assay: Percentage inhibitory activity against Plasminogen activator inhibitor-1 at 10 uM
measured attribute: Inhibition (%)

INSERT INTO assay_data (mol_smiles, value_measured) VALUES
  ('Cn1c(C(=O)O)c(-c2ccccc2)c2cc(NS(=O)(=O)c3ccc(-c4ccccc4)cc3)ccc21', 11),
  ('O=C(Nc1ccc(Cl)c(Cl)c1)c1ccc(CNc2cc([N+](=O)[O-])ccc2C(=O)O)cc1', 3),
  ('Cn1c(C(=O)O)c(-c2ccccc2)c2cc(NS(=O)(=O)c3ccc(C(C)(C)C)cc3)ccc21', 5),
  ('CC(C)(C)c1ccc(Nc2ccc3c(c2)c(-c2ccccc2)c(C(=O)O)n3Cc2ccc(-c3ccccc3)cc2)cc1', 52),
  ('O=C(O)C(=O)c1cn(Cc2ccccc2)c2ccc(-c3ccc(OC(F)(F)F)cc3)cc12', 0),
  ('CC(C)(C)c1ccc(S(=O)(=O)Nc2ccc3c(c2)c(-c2ccccc2)c(C(=O)O)n3Cc2ccccc2)cc1', 41);

====

Target: Plasminogen activator inhibitor 1 (Homo sapiens, UniProt P05121)
Assay: Percentage inhibitory activity against Plasminogen activator inhibitor-1 at 10 uM
measured attribute: Inhibition (%)

INSERT INTO measurements (mol_smiles, target_or_test_system, measured_attribute, units_label, value_measured) VALUES
  ('CC(C)(C)c1ccc(Nc2ccc3c(c2)c(-c2ccccc2)c(C(=O)O)n3Cc2ccccc2)cc1', 'Plasminogen activator inhibitor 1 (Homo sapiens, UniProt P05121)', 'Inhibition', '%', 45),
  ('O=C(O)c1c(-c2ccccc2)c2cc(NS(=O)(=O)c3ccc(OC(F)(F)F)cc3)ccc2n1Cc1ccccc1', 'Plasminogen activator inhibitor 1 (Homo sapiens, UniProt P05121)', 'Inhibition', '%', 33),
  ('O=C(O)c1c(-c2ccccc2)c2cc(NS(=O)(=O)c3ccccc3)ccc2n1Cc1ccc(-c2ccccc2)cc1', 'Plasminogen activator inhibitor 1 (Homo sapiens, UniProt P05121)', 'Inhibition', '%', 79),
  ('O=C(O)c1c(-c2ccccc2)c2cc(-n3cccc3)ccc2n1Cc1ccccc1', 'Plasminogen activator inhibitor 1 (Homo sapiens, UniProt P05121)', 'Inhibition', '%', 12);

====

Molecular target: Plasminogen activator inhibitor 1 (Homo sapiens, UniProt P05121)
measured attribute: IC50 (µM)

INSERT INTO measurements (mol_smiles, value_measured) VALUES
  ('O=C(Nc1ccc(Cl)c(Cl)c1)c1ccc(CNc2cc([N+](=O)[O-])ccc2C(=O)O)cc1', 17.8);

====

Here the recorded Inhibition is given for each entry.
Molecular target: UniProt P05121
Assay: Percentage inhibitory activity against Plasminogen activator inhibitor-1 at 10 uM
measured attribute: Inhibition (%)

INSERT INTO assay_data (mol_smiles, value_measured) VALUES
  ('O=C(O)c1c(-c2ccccc2)c2cc(NS(=O)(=O)c3ccc(-c4ccccc4)cc3)ccc2n1Cc1ccccc1', 44),
  ('O=C(O)c1c(-c2ccccc2)c2cc(Nc3ccc(-c4ccccc4)cc3)ccc2n1Cc1ccccc1', 36),
  ('O=C(Nc1ccc2c(c1)c(-c1ccccc1)c(C(=O)O)n2Cc1ccccc1)c1ccc(F)cc1F', 24),
  ('O=C(O)c1c(-c2ccccc2)c2cc(NS(=O)(=O)c3cccc4cccnc34)ccc2n1Cc1ccccc1', 8),
  ('Cc1ccc(C)n1-c1ccc2c(c1)c(-c1ccccc1)c(C(=O)O)n2Cc1ccccc1', 23),
  ('Cc1cccc(Nc2ccc3c(c2)c(-c2ccccc2)c(C(=O)O)n3Cc2ccccc2)c1', 24),
  ('Cn1c(C(=O)O)c(-c2ccccc2)c2cc(NS(=O)(=O)c3cccc4cccnc34)ccc21', 0),
  ('O=C(Nc1ccc2c(c1)c(-c1ccccc1)c(C(=O)O)n2Cc1ccccc1)Nc1ccc(F)cc1F', 27),
  ('Cn1c(C(=O)O)c(-c2ccccc2)c2cc(NS(=O)(=O)c3ccc(OC(F)(F)F)cc3)ccc21', 0);
